Numbers sourced from PubChem BioAssay.

experiment: optical density shifts of acrAB sulA E. coli – strain DRC41, OD650, 48 h, E. coli filamentation inducer project, primary screen (AID 1152); settings: higher = more signal, called active from +8 up or from −8 down;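 note: E. coli MC1000 strain DRC41 lacking acrAB efflux pump and sulA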
Labels assigned by z-score range: bin 0 = under -0.8, bin 1 = from -0.8 up to 0.6, bin 2 = 0.6 and over

As a guide, the following entries are already answered.
[
  {
    "compound": "O=C1O[C@@H](c2ccccc2)[C@@H](c2ccccc2)N2[C@@H](c3ccc(OCCO)cc3)[C@]3(C(=O)Nc4ccc(C#CC5=CCCCC5)cc43)[C@@H](C(=O)N3CCCCCCC3)[C@H]12",
    "category": "bin 1"
  },
  {
    "compound": "O=C1[C@@]23C=C(Br)[C@H](C[C@@H]2COC3)[C@]12CO2",
    "category": "bin 1"
  },
  {
    "compound": "CC(C)CCC[C@@H](C)[C@H]1CC[C@@]2(C)C3=C(CC[C@]12C)[C@@]1(C)CC[C@H](OC(=O)c2ccc(C(F)(F)F)nc2)C(C)(C)C1CC3 (stereo partly drawn)",
    "category": "bin 2"
  },
  {
    "compound": "C#CCN(C/C=C/c1ccccc1)[C@H](CO)c1ccccc1",
    "category": "bin 0"
  },
  {
    "compound": "CN(C)CCCC[C@@H]1NC(=O)[C@H]2C[C@@H](C(=O)NCCCCCN)[C@@H](c3cccc(OCCO)c3)N2C1=O",
    "category": "bin 2"
  },
  {
    "compound": "O=C1NC(=O)C2C1C=CC(C(O)c1ccc(-c3ccccc3)s1)N2Nc1ccc(Cl)cc1Cl (stereo not drawn)",
    "category": "bin 0"
  },
  {
    "compound": "CCC(CC)C(O)C1C=CC2C(=O)N(c3ccccc3)C(=O)C2N1Nc1ccccc1 (stereo not drawn)",
    "category": "bin 2"
  },
  {
    "compound": "COCC(=C=CC[C@@H](O)c1ccc(OCCO)cc1)C[C@@H](O)c1ccccn1",
    "category": "bin 1"
  },
  {
    "compound": "C#CCNCc1ccccc1",
    "category": "bin 1"
  },
  {
    "compound": "Cc1ccc(C2C3C(=O)CC4C(=O)N(c5ccccc5)C(=O)C4C3CN2S(=O)(=O)c2ccc(C)cc2)cc1 (stereo not drawn)",
    "category": "bin 1"
  }
]

Problem: For O=C1NC(=O)C2C1C=CC(C(O)C1CC=CCC1)N2Nc1ccccn1 (stereo not drawn) , which z-score bin applies?
Solution: bin 1

Problem: Quick check: band for O=C1C2C=CC(C(O)c3c(F)cccc3Cl)N(Nc3ccccc3F)C2C(=O)N1c1ccccc1 (stereo not drawn)
Solution: bin 1

* * *

system: Sam68 (KHDRBS1); assay: compounds binding KHDRBS1 protein – biochemical, small-molecule microarray, 635 nm fluorescence, primary screen (AID 1125); conditions: higher = more signal;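 note: score merges 667 nm channel intensity with signal to noise over triplicate slides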
measured attribute: composite z-score

Worked cases, answers included:
[
  {
    "compound": "CC(C)CCC[C@@H](C)[C@H]1CC[C@@]2(C)C3=C(CC[C@]12C)[C@@]1(C)CC[C@H](OC(=O)c2ccc(C(F)(F)F)nc2)C(C)(C)C1CC3 (some centres undefined)",
    "value": 0.42
  },
  {
    "compound": "COC(=O)[C@@]1(Cc2ccc(OC)cc2)[C@H]2c3cc(C(=O)N4CCCC4)n(CCc4ccc(O)c(O)c4)c3C[C@H]2CN1C(=O)c1ccccc1",
    "value": -0.0777
  },
  {
    "compound": "CN1CCC(CCCO)=CC1c1cccs1 (centres undefined)",
    "value": -0.203
  }
]

Now consider a different compound.
Problem: Request: composite z-score, test system Sam68 (KHDRBS1), entry O=C1C2C=CC(C(O)c3c(F)cccc3Cl)N(Nc3ccccc3F)C2C(=O)N1c1ccccc1 (centres undefined)
Solution: 1.21

* * *

test: growth of efflux-deficient E. coli DRC39 – strain DRC39, OD650, 24 h, E. coli filamentation inducers, primary screen (AID 1178);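 note: growth measured as culture turbidity by optical density at 650 nm; test concentration not given here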; conditions: E. coli DRC39 acrAB, higher = more signal, called active from +8 up or from −8 down
Recorded z-score, one value per entry.
Lab note: record just the number, no unit beside it.

Problem: Return reported z-score; argument: "CCOC(=O)C[C@H]1[C@H](OC(=O)c2ccc(-c3ccccc3)cc2)[C@@H](NC(=O)c2ccccc2)c2cc(OCCCO)ccc2N1C(=O)c1ccc2ccccc2n1"
Solution: 0.27

* * *

Below, each entry is listed alongside its reported composite z-score.
molecular target: Neurogenic locus notch homolog protein 3 (Homo sapiens) (UniProt Q9UM47); experiment: small molecules binding NOTCH3 protein – biochemical, 635/667 nm fluorescence, primary screen (AID 1096); conditions: small-molecule microarray, 635 nm fluorescence, higher = more signal
Sequence (Q9UM47 whole entry, looked up): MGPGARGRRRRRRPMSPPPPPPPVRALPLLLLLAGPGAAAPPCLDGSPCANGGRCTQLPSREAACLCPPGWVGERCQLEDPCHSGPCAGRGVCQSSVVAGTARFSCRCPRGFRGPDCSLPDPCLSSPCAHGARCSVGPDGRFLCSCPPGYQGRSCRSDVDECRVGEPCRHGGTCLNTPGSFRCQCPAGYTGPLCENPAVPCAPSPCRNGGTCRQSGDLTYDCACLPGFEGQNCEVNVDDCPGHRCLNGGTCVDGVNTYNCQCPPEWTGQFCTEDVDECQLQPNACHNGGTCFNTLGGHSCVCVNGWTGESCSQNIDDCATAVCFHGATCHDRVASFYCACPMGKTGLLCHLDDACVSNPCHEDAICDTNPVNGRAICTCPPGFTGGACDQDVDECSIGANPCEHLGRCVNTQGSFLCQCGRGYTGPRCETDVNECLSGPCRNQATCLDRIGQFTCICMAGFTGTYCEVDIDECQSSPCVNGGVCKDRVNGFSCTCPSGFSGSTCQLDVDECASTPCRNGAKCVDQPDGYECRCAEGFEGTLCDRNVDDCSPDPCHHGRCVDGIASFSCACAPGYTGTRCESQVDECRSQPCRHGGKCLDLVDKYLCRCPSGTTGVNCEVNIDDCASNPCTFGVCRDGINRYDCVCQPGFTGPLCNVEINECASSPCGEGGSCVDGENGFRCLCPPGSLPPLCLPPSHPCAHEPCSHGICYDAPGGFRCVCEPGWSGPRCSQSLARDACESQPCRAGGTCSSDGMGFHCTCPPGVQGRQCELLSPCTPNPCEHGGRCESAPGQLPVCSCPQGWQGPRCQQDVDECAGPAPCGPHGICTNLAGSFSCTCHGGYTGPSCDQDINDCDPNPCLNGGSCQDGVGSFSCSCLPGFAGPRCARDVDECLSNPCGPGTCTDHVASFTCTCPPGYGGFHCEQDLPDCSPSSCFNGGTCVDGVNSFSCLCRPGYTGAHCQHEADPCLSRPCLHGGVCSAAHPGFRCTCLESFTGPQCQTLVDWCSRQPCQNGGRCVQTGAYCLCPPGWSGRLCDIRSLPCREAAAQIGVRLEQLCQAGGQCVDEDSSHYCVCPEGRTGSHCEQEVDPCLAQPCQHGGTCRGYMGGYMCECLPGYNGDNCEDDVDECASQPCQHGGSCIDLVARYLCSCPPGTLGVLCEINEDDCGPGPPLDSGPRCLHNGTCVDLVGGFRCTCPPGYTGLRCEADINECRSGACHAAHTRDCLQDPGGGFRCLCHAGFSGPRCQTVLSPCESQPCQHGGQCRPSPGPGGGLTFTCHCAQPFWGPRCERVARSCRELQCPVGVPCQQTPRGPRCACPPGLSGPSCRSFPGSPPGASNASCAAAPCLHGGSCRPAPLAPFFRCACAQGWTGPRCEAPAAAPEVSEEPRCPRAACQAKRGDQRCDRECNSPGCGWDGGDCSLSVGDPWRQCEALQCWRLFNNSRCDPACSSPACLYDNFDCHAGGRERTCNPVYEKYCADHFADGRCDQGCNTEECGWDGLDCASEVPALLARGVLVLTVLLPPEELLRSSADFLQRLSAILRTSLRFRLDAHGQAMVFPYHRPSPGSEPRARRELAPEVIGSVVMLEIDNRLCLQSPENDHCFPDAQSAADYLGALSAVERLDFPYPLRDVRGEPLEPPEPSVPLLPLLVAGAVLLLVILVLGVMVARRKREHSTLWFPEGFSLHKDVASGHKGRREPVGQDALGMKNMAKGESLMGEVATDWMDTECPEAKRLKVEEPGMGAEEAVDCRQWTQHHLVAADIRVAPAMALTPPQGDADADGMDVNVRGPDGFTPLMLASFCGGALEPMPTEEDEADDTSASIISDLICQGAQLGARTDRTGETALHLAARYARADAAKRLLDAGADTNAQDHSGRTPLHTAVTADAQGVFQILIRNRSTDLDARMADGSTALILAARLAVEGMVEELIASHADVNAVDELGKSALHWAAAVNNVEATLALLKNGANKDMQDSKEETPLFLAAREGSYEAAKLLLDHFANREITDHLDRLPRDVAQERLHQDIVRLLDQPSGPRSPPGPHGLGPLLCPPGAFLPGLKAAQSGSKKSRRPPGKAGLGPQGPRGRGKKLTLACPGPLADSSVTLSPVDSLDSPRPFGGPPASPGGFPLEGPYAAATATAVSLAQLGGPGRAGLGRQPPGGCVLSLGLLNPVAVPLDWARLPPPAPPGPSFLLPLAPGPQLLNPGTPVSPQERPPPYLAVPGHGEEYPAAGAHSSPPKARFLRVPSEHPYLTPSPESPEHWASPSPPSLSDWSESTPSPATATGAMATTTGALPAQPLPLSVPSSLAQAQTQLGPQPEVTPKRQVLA
Kindly provide the number alone.

Reference set (4 entries):
[
  {
    "compound": "O=C(O)C1N=C(c2ccc(OCCCO)cc2)N(c2ccccc2)O1 (configuration not stated)",
    "composite z-score": 0.12
  },
  {
    "compound": "COCCOC(=O)N1C(=O)[C@@]2(c3ccccc31)[C@H](C(=O)N1CCCCCCC1)[C@H]1C(=O)O[C@H](c3ccccc3)[C@H](c3ccccc3)N1[C@@H]2c1ccc(OCCO)cc1",
    "composite z-score": 1
  },
  {
    "compound": "CCCC[C@H]1C[C@@H]1[C@@H]1N(P(=O)(c2ccccc2)c2ccccc2)C[C@@](O)(c2ccccc2)CC12CC2",
    "composite z-score": -0.317
  },
  {
    "compound": "CC(C)CNC(=O)[C@@]1(Cc2ccccc2I)c2ccccc2C(=O)N(Cc2ccccc2C(F)(F)F)[C@H]1c1ccc(CO)cc1",
    "composite z-score": -0.771
  }
]

Problem: I am curious: what composite z-score value has been reported for "Cc1ccc(S(=O)(=O)N2C[C@@H](C(=O)O)[C@H](Sc3ccccc3)C[C@H]2c2ccccc2)cc1" ?
Solution: 0.988

Problem: Returns the measured composite z-score for the input compound. Input: "CN(C)CCCCCCNC(=O)[C@@H]1C[C@@H]2C(=O)N[C@@H](CCCC[N+](C)(C)C)C(=O)N2[C@@H]1c1ccc(O)cc1"
Solution: 0.0475

Problem: Requested read-out: composite z-score. Entry: "COc1ccc([Si](C)(C)[C@@H]2[C@@H](CC(=O)N3CCC[C@H]3CO)O[C@]3(C(=O)N(Cc4cccc(I)c4)c4ccccc43)[C@H]2C)cc1"
Solution: 1.08

* * *

# z-score values compiled below
test: calcein-AM signal in unstimulated myeloma cells – cell-based, calcein-AM fluorescence, 48 h, PK04 Diversity Set, profiling panel (AID 1166); conditions: RPMI8226 myeloma viability, higher = more signal;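 note: cells grown under basal conditions without added stimulus; test concentration not given here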
Write the number on its own, no unit after it.

Worked examples follow.
[
  {
    "compound": "COc1cc(CO)cc(I)c1O[C@H]1C=C(C(=O)NCCO)C[C@@H](N(C(=O)c2cc3ccccc3oc2=O)C2CCCCCC2)[C@@H]1O",
    "value": -0.704
  },
  {
    "compound": "C=CCNC(=O)[C@H]1[C@@H]2C(=O)O[C@@H](c3ccccc3)[C@@H](c3ccccc3)N2[C@@H](c2ccc(O)cc2)[C@]12C(=O)Nc1ccc(C#CCCO)cc12",
    "value": 0.168
  },
  {
    "compound": "Cc1ccc(S[C@]2(C(=O)O)CC(=O)N(Cc3ccccc3C(F)(F)F)[C@@H]2c2ccc(CO)cc2I)cc1",
    "value": -1.5
  },
  {
    "compound": "COCCOC(=O)N1C(=O)[C@@]2(c3cc(C#CC4=CCCCC4)ccc31)[C@H](c1ccc(OCCO)cc1)N1[C@H](c3ccccc3)[C@H](c3ccccc3)OC(=O)[C@H]1[C@@H]2C(=O)N1CCc2cc(OC)c(OC)cc2C1",
    "value": -0.0521
  },
  {
    "compound": "COc1ccc([Si](C)(C)[C@@H]2[C@@H](CCO)O[C@]3(C(=O)N(Cc4cccc(N5CCOC5=O)c4)c4ccccc43)[C@H]2C)cc1",
    "value": -4.17
  },
  {
    "compound": "O=C1O[C@@H](c2ccccc2)[C@@H](c2ccccc2)N2[C@@H](c3ccc(OCCO)cc3)[C@]3(C(=O)Nc4ccc(C#CC5=CCCCC5)cc43)[C@@H](C(=O)N3CCCCCCC3)[C@H]12",
    "value": -1.31
  },
  {
    "compound": "C[N+](C)(C)CCCCCCNC(=O)[C@H]1C[C@H]2C(=O)N[C@@H](Cc3ccccc3)C(=O)N2[C@H]1c1cccc(OCCO)c1",
    "value": 0.517
  },
  {
    "compound": "CCOC(=O)C[C@H]1[C@H](OC(=O)c2ccc(C(=O)c3ccccc3)cc2)[C@@H](NC(=O)Cc2ccc(OC)cc2)c2cc(OCCCO)ccc2N1C(=O)c1ccc2ccccc2n1",
    "value": -0.614
  }
]

Below: the item to evaluate.
Problem: What value of z-score has been reported for the following compound? "NCCCCCNC(=O)[C@H]1C[C@H]2C(=O)N[C@@H](Cc3ccccc3)C(=O)N2[C@H]1c1cccc(OCCO)c1"
Solution: 0.226
